All values here come from PubChem BioAssay (NCI).

Reported values of TGI for individual entries
- Test system: COLO 205 colon
- test-protocol: NCI tumour cell line growth inhibition, 48 h
assay-readout: TGI

compound="COC(=O)[C@@]12CN(C)[C@@H](C(C)(C)C)N1C(=O)OC2c1ccccc1 (some centres not stated)" endpoint_value="> 100 µM"
compound=O=C1Nc2c(Cl)cc(Cl)cc2C1=O endpoint_value="50.8 µM"
compound=Cc1cc(Cl)ccc1OCc1nn2c(CCCCc3nnc4sc(COc5ccc(Cl)cc5C)nn34)nnc2s1 endpoint_value="> 100 µM"
compound=COc1cc(S(=O)(=O)Nc2nc(-c3ccc(N4C(=O)/C(=C\c5cccs5)N=C4c4ccccc4)cc3)cs2)ccc1Cl endpoint_value="> 100 µM"
compound=COC(=O)c1cnc(Cl)c([N+](=O)[O-])c1 endpoint_value="12.2 µM"
compound=CCN=c1nc2sc3c(c2c(NC(=S)NCC)s1)CCN(N1CCc2c(sc4nc(=NCC)sc(NC(=S)NCC)c24)C1)C3 endpoint_value="> 100 µM"
compound=c1ccc(-c2nnc(CCCCCCCCc3nnc(-c4ccccc4)o3)o2)cc1 endpoint_value="> 100 µM"
compound="CC(C)N(C(C)C)[PH+]1O[PH+](N(C(C)C)C(C)C)O[PH+](N(C(C)C)C(C)C)O[PH+](N(C(C)C)C(C)C)O1.[C-]#[O+].[C-]#[O+].[C-]#[O+].[C-]#[O+].[C-]#[O+].[C-]#[O+].[C-]#[O+].[C-]#[O+].[Mo].[Mo] (configuration not stated)" endpoint_value="> 100 µM"
compound=COc1cc(/C=C/C(=O)c2ccccc2)cc(OC)c1OC endpoint_value="21.7 µM"
compound=N#CNC(=NCCO)NCCO endpoint_value="> 100 µM"
compound=COc1cc(-c2nc3ccc(N4CCN(C)CC4)cc3[nH]2)c(OC)c2[nH]c(CO)nc12 endpoint_value="> 100 µM"
compound=NS(=O)(=O)c1cc2c(cc1Cl)NC(/C(=N/NC(=O)c1ccncc1)C1C(=O)NC(=O)NC1=O)=NS2(=O)=O endpoint_value="> 100 µM"
compound=O=C(Cc1ccc(F)cc1)NC1=C(Cl)C(=O)c2ccccc2C1=O endpoint_value="12.7 µM"
compound=COc1ccc(C(=O)c2sc3nc4c(cc3c2N)CCCC4)cc1OC endpoint_value="10.1 µM"
compound=Cn1cnc([N+](=O)[O-])c1Sc1nc2ccccc2s1 endpoint_value="14.5 µM"
compound="O=C1OC2C=CCC1C2 (configuration not stated)" endpoint_value="> 100 µM"
compound="CC(=O)OC12c3ccccc3C1CCCC21OCCCO1 (configuration not stated)" endpoint_value="> 100 µM"
compound="CCOP(=O)(O)CC1OC(CO)C(O)C1O (configuration not stated)" endpoint_value="> 100 µM"
compound=Cn1c(-c2ccccc2)cc(-c2cccs2)c1-c1ccsc1 endpoint_value="> 100 µM"
compound=COC(=O)/C=C1/SC(=Nc2ccc(F)cc2)N(CCc2c[nH]c3ccc(O)cc23)C1=O endpoint_value="> 100 µM"
compound=CSc1cc(-c2cc3ccccc3o2)oc(=O)c1C#N endpoint_value="> 100 µM"
compound=CCOC(=O)[C@@H]1[C@@H]2NC(=O)N[C@@]1(C)Oc1ccccc12 endpoint_value="> 100 µM"
compound=C[C@@H](O)CCC(=O)c1ccoc1 endpoint_value="> 100 µM"
compound=CN(C)c1ccc(/C=C2\C[C@H]3[C@@H]4CC=C5C[C@@H](O)CC[C@]5(C)[C@H]4CC[C@]3(C)C2=O)cc1 endpoint_value="> 100 µM"
compound=O=c1c(=O)c2cscc2c1=O endpoint_value="8.61 µM"
compound="O=C(c1ccccc1)c1ccc2cccc(OC3OC(CO)C(O)C(O)C3O)c2n1 (configuration not stated)" endpoint_value="> 100 µM"
compound=CCCCCCN1CCc2c(C)c(C#N)c3nc4ccccc4n3c21 endpoint_value="> 100 µM"

====

- Test system: HT29 colon
- test-protocol: NCI tumour cell line growth inhibition, 48 h; in the data active = GI50 below about 0.43 µM; inactive = the rest
Outcome codes: true (1) = active, false (0) = inactive

smiles_string=O=C(CN(/C=C/C(=O)C(F)(F)F)c1ccc(Cl)cc1)c1ccc(F)cc1 assigned_class="false (0)"
smiles_string=C[CH2][Sn]([CH2]C)([O]C(=O)c1c(F)cccc1F)[O][Sn]([CH2]C)([CH2]C)[O]C(=O)c1c(F)cccc1F assigned_class="false (0)"
smiles_string=O=C1/C=C/[C@@H](O)[C@@H]2C[C@@H](O)C[C@H]2/C=C/CCC[C@H](CCc2ccccc2)O1 assigned_class="true (1)"
smiles_string=C[CH2][Pb]([CH2]C)([CH2]C)[O]C(=O)COC assigned_class="false (0)"
smiles_string=Nc1nc2cc(O)ccc2n2cc3c(F)cccc3c12 assigned_class="false (0)"

====

- Tested on: U251 CNS
- test-protocol: NCI tumour cell line growth inhibition, 48 h
Where a SMILES comes first, the peptide text is derived from it.
assay-readout: TGI

molecule=NNC(=O)c1ccccc1Nc1nc(-c2cccs2)nc2ccc(Br)cc12 endpoint_value="> 100 µM"
molecule="CCC(C)C(NC(=O)C(NC(=O)C(CC(N)=O)NC(=O)CN)C(C)O)C(=O)NC(C(=O)NC(C)C(=O)NC(C(=O)NC(CCC(=O)O)C(=O)NC(CC(C)C)C(=O)NC(CC(=O)O)C(=O)NC(C(=O)NC(Cc1ccc(O)cc1)C(=O)N1CCCC1C(=O)O)C(C)O)C(C)C)C(C)C (stereo not drawn) (H-GNTIVAVELDTYP-OH; configuration not given here)" endpoint_value="> 50 µM"
molecule="Nc1ncnc2c1ncn2C1CC(O)C(CO)O1 (stereo not drawn)" endpoint_value="> 100 µM"
molecule=CC(C)N(CCCNC(=O)Nc1ccc(C(C)(C)C)cc1)C[C@H]1O[C@@H](n2ccc3c(N)ncnc32)[C@H](O)[C@@H]1O endpoint_value="> 100 µM"
molecule=COc1cc2c(cc1OCCCN1CCN(C)CC1)N=C[C@@H]1CCCN1C2=O endpoint_value="14.5 µM"
molecule="CC1CC2(OC2C)C(=O)OC2CCN(C)C/C=C(/COC(=O)C1(C)O)C2=O (stereo not drawn)" endpoint_value="> 100 µM"
molecule=Cc1ccc(C2=NN(c3ccc(S(C)(=O)=O)cc3)C(=O)CC2)cc1 endpoint_value="> 100 µM"
molecule=CC(=O)Nc1ccc(-c2nnc(SCC(=O)Nc3ccccc3)o2)cc1 endpoint_value="> 100 µM"
molecule="O=c1ncc(I)cn1C1CC(O)C(CO)O1 (stereo not drawn)" endpoint_value="> 3250 µM"
molecule="CC(C)N(C(C)C)[PH+]1O[PH+](N(C(C)C)C(C)C)O[PH+](N(C(C)C)C(C)C)O[PH+](N(C(C)C)C(C)C)O1.[C-]#[O+].[C-]#[O+].[C-]#[O+].[C-]#[O+].[C-]#[O+].[C-]#[O+].[C-]#[O+].[C-]#[O+].[Mo].[Mo] (stereo not drawn)" endpoint_value="> 100 µM"
molecule=CN(C)c1ccc(/C=C2\C[C@H]3[C@@H]4CC=C5C[C@@H](O)CC[C@]5(C)[C@H]4CC[C@]3(C)C2=O)cc1 endpoint_value="25.9 µM"
molecule=Cc1nn2c(/C=N/N=C(N)N)c(-c3ccc(Cl)c([N+](=O)[O-])c3)nc2s1 endpoint_value="0.597 µM"
molecule="O=C1OCC2=C1C(c1ccc3c(c1)OCO3)c1cc3c(cc1O2)OCO3 (stereo not drawn)" endpoint_value="> 100 µM"

====

- System: SW-620 colon
- test-protocol: NCI tumour cell line growth inhibition, 48 h
Reported values of TGI for individual entries
assay-readout: TGI

compound=CCC(=O)OC1=C(c2ccccc2)Sc2ccc(Cl)cc2-n2cccc21 assay_readout=TGI endpoint_value="> 10 µM"
compound=NCCCCCn1c2c(c3ccccc3c1=O)C(=O)c1ccccc1-2 assay_readout=TGI endpoint_value="4.09 µM"
compound="Cc1c2c(n(C)c1C)C(=O)C1C(C2=O)C2(C)c3ccccc3C1(C)c1ccccc12 (configuration not stated)" assay_readout=TGI endpoint_value="> 100 µM"
compound=CCn1c2ccccc2c2cc(N=Nc3ccc(C#N)cc3)ccc21 assay_readout=TGI endpoint_value="> 100 µM"
compound="O=C1OC2C=CCC1C2 (configuration not stated)" assay_readout=TGI endpoint_value="> 100 µM"
compound="O=C(OCC1OC(n2cc(C(F)(F)F)c(=O)[nH]c2=O)CC1OC(=O)c1ccc([N+](=O)[O-])cc1)c1ccc([N+](=O)[O-])cc1 (configuration not stated)" assay_readout=TGI endpoint_value="> 100 µM"
compound="CC12CCC([C@H](Nc3cc(C(F)(F)F)cc(C(F)(F)F)c3)C1=O)C2(C)C (some centres not stated)" assay_readout=TGI endpoint_value="> 100 µM"
compound=CCCCCCCCCCCC(=O)NCc1ccc(OC(=O)CCCCCCCCCCC)c(OC)c1 assay_readout=TGI endpoint_value="> 100 µM"
compound="COC(=O)C(=O)C(C(=O)C(=O)Nc1ccc(OC)cc1[N+](=O)[O-])c1nc2ccc([N+](=O)[O-])cc2[nH]c1=O (configuration not stated)" assay_readout=TGI endpoint_value="> 100 µM"
compound="O=C1C=CC2(O)OC/C(=C\\c3ccccc3)C(O)=C2C1=O (configuration not stated)" assay_readout=TGI endpoint_value="3.68 µM"
compound="COC(=O)C1=C(C=O)C2C=CC1C2 (configuration not stated)" assay_readout=TGI endpoint_value="62.6 µM"
compound="CN1CCCC2[C@@H]3CCC4=C(O)C(=O)CC[C@]4(C)C3CC[C@@]21C (some centres not stated)" assay_readout=TGI endpoint_value="> 100 µM"
compound="CN(C)CC1CC/C(=C\\c2ccc(Cl)cc2)C1=O (configuration not stated)" assay_readout=TGI endpoint_value="7.44 µM"
compound=COc1ccc(C(=O)/C=C/c2ccc(Oc3cc(C(=O)/C=C/c4ccc(O)cc4)c(O)cc3OC)cc2)c(O)c1 assay_readout=TGI endpoint_value="> 100 µM"
compound="C[C@]12CCC(N3CCCC3)CC1=CC[C@@H]1[C@@H]2CC[C@]2(C)C(O)[C@H](n3ccnc3)C[C@@H]12 (some centres not stated)" assay_readout=TGI endpoint_value="> 100 µM"
compound="NC(Cc1ccccc1)P(=O)(O)O (configuration not stated)" assay_readout=TGI endpoint_value="> 100 µM"
compound="CC(=O)OCC1OC(Nc2ccc3nc(C)n(-c4ccccc4)c(=O)c3c2)C(OC(C)=O)C(OC(C)=O)C1OC(C)=O (configuration not stated)" assay_readout=TGI endpoint_value="> 50 µM"
compound="Fc1cccc(C2SCC3=Nc4ccccc4CN32)c1 (configuration not stated)" assay_readout=TGI endpoint_value="> 100 µM"
compound="Nc1nc(Cl)c(N=Nc2ccc(Cl)cc2)c(NCC2(CO)CCC(CCc3ccccc3)C2)n1 (configuration not stated)" assay_readout=TGI endpoint_value="17 µM"
compound="O=NN1CCNC1Cc1ccccc1 (configuration not stated)" assay_readout=TGI endpoint_value="> 100 µM"
compound=C=C=C(Sc1ccccc1)C(C)(C)O assay_readout=TGI endpoint_value="> 100 µM"
compound=CNCCCNc1nc2ccccc2c2c(=O)c3cc(F)ccc3sc12 assay_readout=TGI endpoint_value="2.85 µM"
compound=O=C1Nc2c(Cl)cc(Cl)cc2C1=O assay_readout=TGI endpoint_value="41.5 µM"
compound="CC(CCOc1ccc2ccc(=O)oc2c1)C1=CC(=O)C(C)(C)O1 (configuration not stated)" assay_readout=TGI endpoint_value="4.93 µM"
compound="Cc1ccc(C2CC(c3cccc([N+](=O)[O-])c3)=Nc3ccccc3S2)cc1 (configuration not stated)" assay_readout=TGI endpoint_value="46.2 µM"
compound=CC1=C(C(=O)CC(=O)C(=O)Nc2ccc(Cl)cc2C)Sc2ccccc2N1 assay_readout=TGI endpoint_value="> 100 µM"
compound="C#CC[C@@H]1C[C@]2(C)[C@H]3CC[C@@H]4[C@H]5C(C(=C)C)CC[C@]5(C(=O)NCCCCN)CC[C@@]4(C)[C@]3(C)CC[C@H]2C(C)(C)[C@H]1OC(C)=O (some centres not stated)" assay_readout=TGI endpoint_value="3.74 µM"
compound="CCc1ccc(C(=O)/C=C/C23c4ccccc4C(c4ccccc42)C2C(=O)NC(=O)C23)cc1 (configuration not stated)" assay_readout=TGI endpoint_value="5.72 µM"
compound="C=C1CC2(CCOc3ccc(Cl)cc32)OC1=O (configuration not stated)" assay_readout=TGI endpoint_value="5.44 µM"
compound="COC1/C(=C\\c2ccccc2I)c2ccccc2N1C(C)=O (configuration not stated)" assay_readout=TGI endpoint_value="39.2 µM"
compound=Cc1cc(=O)[nH]c(S(=O)(=O)NC(=S)Nc2ccc(Cl)cc2)n1 assay_readout=TGI endpoint_value="> 100 µM"
compound=Cc1[nH]c(=O)nc2nc3ccc(Cl)cc3c(N(CCO)CCO)c12 assay_readout=TGI endpoint_value="> 100 µM"
compound=COc1cc(OC)c(/C=C/c2cc[n+](C)c3ccccc23)c(OC)c1 assay_readout=TGI endpoint_value="16.9 µM"
compound=Cc1ccccc1NC(=O)C(=O)c1c(O)c2ccc(O)cc2oc1=O assay_readout=TGI endpoint_value="> 100 µM"
compound="C=C1C(O)C2C(=C(CCC3CC3)C13CC3)C(=O)C(C)(C)C2O (configuration not stated)" assay_readout=TGI endpoint_value="> 100 µM"
compound=C=C1c2nc3ccccc3n2C=C(c2ccc(C)cc2)N1c1ccccc1 assay_readout=TGI endpoint_value="> 100 µM"
compound=Nc1ccccc1Nc1ccccc1C(=O)[O-].Nc1ccccc1Nc1ccccc1C(=O)[O-].[Ni+2] assay_readout=TGI endpoint_value="> 100 µM"
